Ref: patent US6914045B2

- Tested on: Escherichia coli
- ASSAY_METHOD_TEXT: in vitro antibacterial evaluation, MIC by broth dilution
- Assay type: cell-based
- EXPERIMENTAL_SETUP: 18 hours at 35° C., strain ATCC 25922

COMPOUND	UNITS	COMPARISON_SIGN	MIC Escherichia coli (ATCC 25922)
CC(c1ccccc1)C1NC(=O)CNC(=O)C(CO)NC(=O)C(C(O)C2CNC(=N)N2C2OC(CO)C(O)C(O)C2O)NC(=O)C(C(O)C2CNC(=N)N2)NC(=O)C(Cc2ccc(OC3OC(CO)C(OC4OC5COC(Cc6ccc(Cl)cc6)OC5C(O)C4O)C(O)C3O)cc2)NC1=O (stereo not shown) [Example 120]	µg/mL	=	16
CC(c1ccccc1)C1NC(=O)CNC(=O)C(CO)NC(=O)C(C(O)C2CNC(=N)N2C2OC(CO)C(O)C(O)C2O)NC(=O)C(C(O)C2CNC(=N)N2)NC(=O)C(Cc2ccc(OC3OC(COC(=O)OCc4ccccc4)C(OC4OC(CO)C(O)C(O)C4O)C(O)C3O)cc2)NC1=O (stereo not shown) [Example 101]	µg/mL	>	64
COc1ccc(CC2OCC3OC(OC4C(CO)OC(Oc5ccc(CC6NC(=O)C(C(C)c7ccccc7)NC(=O)CNC(=O)C(CO)NC(=O)C(C(O)C7CNC(=N)N7C7OC(CO)C(O)C(O)C7O)NC(=O)C(C(O)C7CNC(=N)N7)NC6=O)cc5)C(O)C4O)C(O)C(O)C3O2)cc1 (stereo not shown) [Example 103]	µg/mL	=	64
CC(c1ccccc1)C1NC(=O)CNC(=O)C(CO)NC(=O)C(C(O)C2CNC(=N)N2C2OC(CO)C(O)C(O)C2O)NC(=O)C(C(O)C2CNC(=N)N2)NC(=O)C(Cc2ccc(OC3OC(CO)C(OC4OC5COC(CC(C)(C)C)OC5C(O)C4O)C(O)C3O)cc2)NC1=O (stereo not shown) [Example 110]	µg/mL	=	64

###

- Tested on: Staphylococcus sp.
- ASSAY_METHOD_TEXT: in vitro antibacterial evaluation, MIC by broth dilution
- Format: cell-based
- EXPERIMENTAL_SETUP: broth dilution, 18 hours at 35° C.; strain GC 4546
Numbered stars: 1 amine (or outer) side, 2 acyl side, 3 side chain; on linkers, the order of the positions; unused ones are H or OH. Square brackets hold non-standard residues; d marks the D form. Peptide text beside a SMILES is read from it. * marks the point of attachment. ξ: configuration not given here. X1 = N=C1NCC(C(O)C(N[*:1])C(=O)[*:2])N1C1OC(CO)C(O)C(O)C1O; ξEnduracididine(βξ-OH,4'ξ) = N=C1NCC(C(O)C(N)C(=O)O)N1; ξPhe(4-Cl,βξ-Me) = CC(c1ccc(Cl)cc1)C(N)C(=O)O; X2 = OCC1OC(OC2C(CO)OC(*)C(O)C2O)C(O)C(O)C1O
RECORDED_ENDPOINT: MIC Staphylococcus haemolyticus (GC 4546) (µg/mL)

COMPOUND	COMPARISON_SIGN	VALUE_MEASURED
COc1ccc2cc(COCC3OC(OC4C(CO)OC(Oc5ccc(CC6NC(=O)C(C(C)c7ccccc7)NC(=O)CNC(=O)C(CO)NC(=O)C(C(O)C7CNC(=N)N7C7OC(CO)C(O)C(O)C7O)NC(=O)C(C(O)C7CNC(=N)N7)NC6=O)cc5)C(O)C4O)C(O)C(O)C3O)ccc2c1 (stereo not drawn)	=	1
CC(c1ccc(Cl)cc1)C1NC(=O)CNC(=O)C(CO)NC(=O)C(C(O)C2CNC(=N)N2C2OC(CO)C(O)C(O)C2O)NC(=O)C(C(O)C2CNC(=N)N2)NC(=O)C(Cc2ccc(OC3OC(CO)C(OC4OC(CO)C(O)C(O)C4O)C(O)C3O)cc2)NC1=O (stereo not drawn) [Example 262a] (cyclo(G[ξPhe(4-Cl,βξ-Me)]Y(X2)[ξEnduracididine(βξ-OH,4'ξ)][X1]S); configuration not given here)	=	64
COc1cc(C2OCC3OC(OC4C(CO)OC(Oc5ccc(CC6NC(=O)C(C(C)c7ccccc7)NC(=O)CNC(=O)C(CO)NC(=O)C(C(O)C7CNC(=N)N7C7OC(CO)C(O)C(O)C7O)NC(=O)C(C(O)C7CNC(=N)N7)NC6=O)cc5)C(O)C4O)C(O)C(O)C3O2)cc([N+](=O)[O-])c1O (stereo not drawn)	=	32
CC(c1ccccc1)C1NC(=O)CNC(=O)C(CO)NC(=O)C(C(O)C2CNC(=N)N2C2OC(CO)C(O)C(O)C2O)NC(=O)C(C(O)C2CNC(=N)N2)NC(=O)C(Cc2ccc(OC3OC(CO)C(OC4OC5COC(c6cccc(O)c6)OC5C(O)C4O)C(O)C3O)cc2)NC1=O (stereo not drawn)	=	16
CC(c1ccccc1)C1NC(=O)CNC(=O)C(CO)NC(=O)C(CC2CNC(=N)N2C2OC(CO)C(O)C(O)C2O)NC(=O)C(CC2CNC(=N)N2)NC(=O)C(Cc2ccc(OC3OC(CO)C(OC4OC(CO)C(O)C(O)C4O)C(O)C3O)cc2)NC1=O (stereo not drawn) [Example 277a]	>	128
N=C1NCC(C(O)C2NC(=O)C(Cc3ccc(OC4OC(CO)C(OC5OC(CO)C(O)C(O)C5O)C(O)C4O)cc3)NC(=O)C(Cc3ccccc3)NC(=O)CNC(=O)C(CO)NC(=O)C(C(O)C3CNC(=N)N3C3OC(CO)C(O)C(O)C3O)NC2=O)N1 (stereo not drawn) [Example 282] (cyclo(GFY(X2)[ξEnduracididine(βξ-OH,4'ξ)][X1]S); configuration not given here)	>	128
CSc1ccc(C2OCC3OC(OC4C(CO)OC(Oc5ccc(CC6NC(=O)C(C(C)c7ccccc7)NC(=O)CNC(=O)C(CO)NC(=O)C(C(O)C7CNC(=N)N7C7OC(CO)C(O)C(O)C7O)NC(=O)C(C(O)C7CNC(=N)N7)NC6=O)cc5)C(O)C4O)C(O)C(O)C3O2)cc1[N+](=O)[O-] (stereo not drawn)	=	0.5

###

- Test system: Enterococcus sp.
- ASSAY_METHOD_TEXT: in vitro antibacterial evaluation, MIC by broth dilution
- Format: cell-based
- EXPERIMENTAL_SETUP: broth dilution, 18 hours at 35° C.; strain GC 4552
Numbered stars: 1 amine (or outer) side, 2 acyl side, 3 side chain; on linkers, the order of the positions; unused ones are H or OH. Square brackets hold non-standard residues; d marks the D form. Peptide text beside a SMILES is read from it. * marks the point of attachment. ξ: configuration not given here. X1 = N=C1NCC(C(O)C(N[*:1])C(=O)[*:2])N1C1OC(CO)C(O)C(O)C1O; ξEnduracididine(βξ-OH,4'ξ) = N=C1NCC(C(O)C(N)C(=O)O)N1; X2 = OCC1OC(OC2C(CO)OC(*)C(O)C2O)C(O)C(O)C1O; Cha = N[CH](CC1CCCCC1)C(=O)O
RECORDED_ENDPOINT: MIC Enterococcus faecalis (GC 4552) (mg/L)

MOLECULE	RECORDED_ENDPOINT	COMPARISON_SIGN	VALUE_MEASURED
CC(c1ccccc1)C1NC(=O)CNC(=O)C(CO)NC(=O)C(C(O)C2CNC(=N)N2C2OC(CO)C(O)C(O)C2O)NC(=O)C(C(O)C2CNC(=N)N2)NC(=O)C(Cc2ccc(OC3OC(CO)C(OC4OC5COC(CC6CCN(C(=O)OCc7ccccc7)CC6)OC5C(O)C4O)C(O)C3O)cc2)NC1=O (stereo not shown)	MIC Enterococcus faecalis (GC 4552)	=	2
N=C1NCC(C(O)C2NC(=O)C(Cc3ccc(OC4OC(CO)C(OC5OC(CO)C(O)C(O)C5O)C(O)C4O)cc3)NC(=O)C(Cc3ccccc3)NC(=O)CNC(=O)C(CO)NC(=O)C(C(O)C3CNC(=N)N3C3OC(CO)C(O)C(O)C3O)NC2=O)N1 (stereo not drawn) [Example 282] (cyclo(GFY(X2)[ξEnduracididine(βξ-OH,4'ξ)][X1]S); configuration not given here)	MIC Enterococcus faecalis (GC 4552)	>	128
CC(c1ccccc1)C1NC(=O)CNC(=O)C(CO)NC(=O)C(C(O)C2CNC(=N)N2C2OC(CO)C(O)C(O)C2O)NC(=O)C(C(O)C2CNC(=N)N2)NC(=O)C(Cc2ccc(OC3OC(CO)C(OC4OC5COC(CC6CCCCC6)OC5C(O)C4O)C(O)C3O)cc2)NC1=O (stereo not shown)	MIC Enterococcus faecalis (GC 4552)	=	2
CCC(C)C(=O)OC1C(CO)OC(OC2C(CO)OC(Oc3ccc(CC4NC(=O)C(C(C)c5ccccc5)NC(=O)CNC(=O)C(CO)NC(=O)C(C(O)C5CNC(=N)N5C5OC(CO)C(O)C(O)C5O)NC(=O)C(C(O)C5CNC(=N)N5)NC4=O)cc3)C(O)C2O)C(O)C1O (stereo not shown) [Example 278c]	MIC Enterococcus faecalis (GC 4552)	=	32
N=C1NCC(C(O)C2NC(=O)C(Cc3ccc(OC4OC(CO)C(OC5OC(CO)C(O)C(O)C5O)C(O)C4O)cc3)NC(=O)C(CC3CCCCC3)NC(=O)CNC(=O)C(CO)NC(=O)C(C(O)C3CNC(=N)N3C3OC(CO)C(O)C(O)C3O)NC2=O)N1 (stereo not drawn) [Example 263] (cyclo(G[Cha]Y(X2)[ξEnduracididine(βξ-OH,4'ξ)][X1]S); configuration not given here)	MIC Enterococcus faecalis (GC 4552)	>	64
CC(c1ccccc1)C1NC(=O)CNC(=O)C(CO)NC(=O)C(C(O)C2CNC(=N)N2C2OC(CO)C(O)C(O)C2O)NC(=O)C(C(O)C2CNC(=N)N2)NC(=O)C(Cc2ccc(OC3OC(COC(=O)CCC4CCCC4)C(OC4OC(CO)C(O)C(O)C4O)C(O)C3O)cc2)NC1=O (stereo not shown) [Example 100b]	MIC Enterococcus faecalis (GC 4552)	=	8
CCCCCC1OCC2OC(OC3C(CO)OC(Oc4ccc(CC5NC(=O)C(C(C)c6ccccc6)NC(=O)CNC(=O)C(CO)NC(=O)C(C(O)C6CNC(=N)N6C6OC(CO)C(O)C(O)C6O)NC(=O)C(C(O)C6CNC(=N)N6)NC5=O)cc4)C(O)C3O)C(O)C(O)C2O1 (stereo not shown)	MIC Enterococcus faecalis (GC 4552)	=	2
